Exercise: for every item that follows, state its recorded inhibition.
# EXPERIMENTAL_SYSTEM: Solute carrier family 2, facilitated glucose transporter member 1 (Homo sapiens)
# PROCEDURE_TEXT: ST_JUDE_LEISH: Cytotoxicity at 2uM final concentration against transgenic Leishmania Mexicana promastigotes LmGLUT1 that are glucose transport deficient and complemented with the human glucose transporter GLUT1. Activity is measured by DNA content using SYBR green in vitro
# Type: functional
One number for each entry, in %.

[[record]]
compound = "CCN1CCC(N(CCCCCCCCc2ccc(C(F)(F)F)cc2)C(=O)Cn2c(CCc3cccc(F)c3F)cc(=O)c3ccccc32)CC1"
readout_label = "inhibition"
units_symbol = "%"
experimental_value = 8.91

[[record]]
compound = "CC(CCON1C(N)=NC(N)=NC1(C)C)c1ccc(Cl)cc1 (centres undefined)"
readout_label = "inhibition"
units_symbol = "%"
experimental_value = 21.4

[[record]]
compound = "Cc1ccccc1C1CCN(C2CCC(NC(=O)c3cc4cc(Cl)ccc4o3)CC2)CC1 (centres undefined)"
readout_label = "inhibition"
units_symbol = "%"
experimental_value = 1.84

[[record]]
compound = "O=C(Nc1ccc(Cl)cc1)Nc1ccc2c(c1)N1CCN=C1S2"
readout_label = "inhibition"
units_symbol = "%"
experimental_value = -0.81

[[record]]
compound = "CN1CCN(c2ccnc3ccc(NC(=O)Cc4ccc5ccccc5c4)cc23)CC1"
readout_label = "inhibition"
units_symbol = "%"
experimental_value = 0.96

[[record]]
compound = "O=C(/C=C/c1ccc(Cl)c(Cl)c1)NCCCCCN1CCC(NC(=S)Nc2cccc(Cl)c2)CC1"
readout_label = "inhibition"
units_symbol = "%"
experimental_value = 2.06

[[record]]
compound = "C[C@H](NC(=O)c1c(CN2CCC(N3CCCCC3=O)CC2)c(-c2cccs2)nc2ccccc12)C1CCCCC1"
readout_label = "inhibition"
units_symbol = "%"
experimental_value = 4.3

[[record]]
compound = "CCN(CC)CCNC(=O)c1ccc(Nc2ncc([N+](=O)[O-])c(Nc3ccccc3OC)n2)cc1"
readout_label = "inhibition"
units_symbol = "%"
experimental_value = 4.77


[Q] Which value of inhibition has been reported for CC[C@H](N/C(=N\c1cccc(Cl)c1Cl)Nc1ccc(C#N)cc1O)c1ccccc1 in the records?
[A] 7.88
